other listing for selected binders.
assay.target: receptor binding domain of the SARS-CoV-2 (Wuhan) Spike protein with C-terminal 6xHis-tag (SARS-CoV-2 (Wuhan), UniProt P0DTC2)
assay.remarks: cell-based or functional assay
Give just the number in ng/mL; leave the unit off.

Previously resolved entries follow.
# binder, recorded.result
measured = [
    ("COVA2-15 secretory IgA2 (antibody, V domains shown) VH: QVQLLESGGGLVQPGGSLRLSCAASGFTFSSYAMSWVRQAPGKGLEWASAISGSGGSTYYADSVEGRFTISRDNSKNTLYLQMNSLRAEDTAVYYCAKDTGYCGDDCYIKLIRGGPDYWGQGTLVTVSS VL: DIVMTQSPLSLPVTLGQPASISCRSSQSLVYSDGNTFLNWFQQRPGQSPRRLIYQVSNRDSGVPDRFSGSGSGTDFTLKISRVEAEDVGVYYCMQGTHWPRTFGQGTKLEIK", 13.5),
    ("COVA2-15 secretory IgA1 (antibody, V domains shown) VH: QVQLLESGGGLVQPGGSLRLSCAASGFTFSSYAMSWVRQAPGKGLEWASAISGSGGSTYYADSVEGRFTISRDNSKNTLYLQMNSLRAEDTAVYYCAKDTGYCGDDCYIKLIRGGPDYWGQGTLVTVSS VL: DIVMTQSPLSLPVTLGQPASISCRSSQSLVYSDGNTFLNWFQQRPGQSPRRLIYQVSNRDSGVPDRFSGSGSGTDFTLKISRVEAEDVGVYYCMQGTHWPRTFGQGTKLEIK", 13.5),
    ("COVA2-15 monomeric IgA1 (antibody, V domains shown) VH: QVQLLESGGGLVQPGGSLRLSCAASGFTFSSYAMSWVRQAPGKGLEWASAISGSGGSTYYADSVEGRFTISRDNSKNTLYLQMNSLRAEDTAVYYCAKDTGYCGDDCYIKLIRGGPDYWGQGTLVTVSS VL: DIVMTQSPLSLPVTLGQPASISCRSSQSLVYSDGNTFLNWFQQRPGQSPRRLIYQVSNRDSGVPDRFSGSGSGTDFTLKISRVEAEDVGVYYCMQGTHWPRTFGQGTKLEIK", 50),
    ("COVA2-15 IgG (antibody, V domains shown) VH: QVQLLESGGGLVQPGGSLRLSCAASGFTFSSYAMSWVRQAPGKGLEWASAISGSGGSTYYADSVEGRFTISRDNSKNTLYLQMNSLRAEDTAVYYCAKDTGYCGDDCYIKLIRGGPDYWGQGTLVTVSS VL: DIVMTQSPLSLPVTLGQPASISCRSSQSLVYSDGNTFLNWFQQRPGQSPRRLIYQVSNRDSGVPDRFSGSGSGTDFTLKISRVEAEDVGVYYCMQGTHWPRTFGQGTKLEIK", 50),
]

Please turn your attention to the following entry.
Query: Consider the binder shown here: COVA2-15 monomeric IgA2 (antibody, V domains shown) VH: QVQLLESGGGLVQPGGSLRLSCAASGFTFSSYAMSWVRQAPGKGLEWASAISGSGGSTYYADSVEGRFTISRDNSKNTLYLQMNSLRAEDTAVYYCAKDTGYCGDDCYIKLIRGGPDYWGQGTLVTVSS VL: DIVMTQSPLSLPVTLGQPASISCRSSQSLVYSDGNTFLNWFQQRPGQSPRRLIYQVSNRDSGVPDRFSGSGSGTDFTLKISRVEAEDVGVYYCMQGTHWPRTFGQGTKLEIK What is its recorded other?
Result: 50
